IC50 for Receptor tyrosine-protein kinase erbB-2 (Homo sapiens) - collated from the literature.

Example entries and their recorded answers appear below.
compound	value type	result
COc1cc(C)c(Nc2ncnc(-n3c(N)nc4ccccc43)n2)cc1OC	IC50	6360 to 9270 nM
C=CC(=O)N1CCC[C@@H](n2cc(-c3ccc(Oc4ccccc4)cc3)c3c(N)ncnc32)C1 (racemic)	IC50	451 nM
O=C(/C=C/CN1CCOCC1)N1CCOc2c1ccc1ncnc(Nc3ccc(OCc4cccc(F)c4)c(Cl)c3)c21	IC50	≤ 50 nM
Nc1ncnc(Nc2ccc3c(ccn3Cc3cccc(F)c3)c2)c1/C=N/OCCCO	IC50	30 nM
Cc1ccc2c(c1)CCCN2c1ncnc(NCCCn2ccnc2)n1	IC50	> 12900 nM
CCOC(=O)c1sc2nc(Cl)c(C#N)c3c2c1NC(=O)N3c1ccc(Oc2ccccc2)cc1	IC50	> 100000 nM

Exercise: Fill blank: measured IC50 of the compound COc1ccc(S(C)(=O)=O)cc1Nc1nccc(-c2sc(N3CCOCC3)nc2-c2cccc(NS(=O)(=O)c3c(F)cccc3F)c2Cl)n1 is ____.
Key: > 1000 nM

Exercise: // next record COc1cc(Nc2ncnc(-c3cccnc3Nc3ccc(C(C)=O)cc3)n2)cc(OC)c1OC
Key: > 9520 nM

Exercise: // next record c1ccc(Cn2ncc3cc(Nc4ncnc(Nc5ncccn5)n4)ccc32)cc1
Key: 6070 to 8850 nM

Exercise: // next record C=C(C)c1nc(-c2cccc(NS(=O)(=O)c3c(F)cccc3F)c2)c(-c2ccnc(Nc3ccc(N4CCN(CCF)CC4)c(F)c3)n2)s1
Key: 100 to 1000 nM

Exercise: // next record COC(=O)c1ccc(-c2cc(Nc3ncnc(Nc4cccc(S(=O)(=O)O)c4)n3)[nH]n2)cc1
Key: 856 to 5130 nM
